Tested on: HCV replicon 1AY93H
experimentDescription: microbe, parasite or virus in culture
Assay type: cell-based, Hepatitis C virus (HCV)
conditionLabel: read-out: 1A Y93H IC50; replicon 1AY93H; Replicon Assay A
pIC50: −log10 of the molar value.
Lab note: anything with pIC50 at or over 8 counts as MET; the rest go in NOT MET.

[[record]]
molecule = "COC(=O)NC(C(=O)N1CCC[C@H]1c1ncc(-c2ccc3c(c2)cc2n3C(c3ccc(C4CC4)s3)Oc3cc(-c4cnc([C@@H]5CCCN5C(=O)[C@@H](NC(=O)OC)C(C)C)[nH]4)cc(F)c3-2)[nH]1)C1C[C@H](C)O[C@@H](C)C1 (single isomer, unassigned) [Compound 403]"
assignedcategory = "MET"

[[record]]
molecule = "COC(=O)NC(C(=O)N1CCC[C@H]1c1ncc(-c2ccc3c(c2)cc2n3C(c3ccc(C4CC4)s3)Oc3cc(-c4cnc([C@@H]5CCCN5C(=O)[C@@H](NC(=O)OC)C(C)C)[nH]4)cc(F)c3-2)[nH]1)C1CN(C(=O)OC)C1 (single isomer, unassigned) [Compound 227]"
assignedcategory = "MET"

[[record]]
molecule = "CCc1ccc(C2Oc3cc(-c4cnc(C5CCCN5C(=O)C(NC(=O)OC)C5C[C@@H](C)O[C@@H](C)C5)[nH]4)ccc3-c3cc4c(F)c(-c5cnc([C@@H]6CCCN6C(=O)[C@@H](NC(=O)OC)C(C)C)[nH]5)ccc4n32)s1 (single isomer, unassigned) [Compound 358]"
assignedcategory = "MET"

[[record]]
molecule = "COC(=O)NC(C(=O)N1CCC[C@H]1c1ncc(-c2ccc3c(c2)cc2n3C(c3ccc(C4CC4)s3)Oc3cc(-c4cnc([C@@H]5CCCN5C(=O)[C@@H](NC(=O)OC)C(C)C)[nH]4)cc(F)c3-2)[nH]1)C(C)(C)F (single isomer, unassigned) [Compound 75]"
assignedcategory = "MET"

[[record]]
molecule = "CCc1ccc(C2Oc3cc(-c4cnc([C@@H]5CCCN5C(=O)C(NC(=O)OC)C5CCOC(C)(C)C5)[nH]4)cc(F)c3-c3cc4cc(-c5cnc([C@@H]6CCCN6C(=O)[C@@H](NC(=O)OC)C(C)C)[nH]5)ccc4n32)s1 (single isomer, unassigned) [Compound 160]"
assignedcategory = "NOT MET"

